tested on: RARg homodimer (NR concentration 270 nM); assay: PBM binding z-score (relative to random genomic background probes); higher = stronger binding; sequences stand for … in GC…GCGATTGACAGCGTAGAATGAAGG
Quick rule for you: PBM binding z-score at 1 or higher means yes, lower means no.

AGTCAAAGTTCACTAGGTAACGTACGATTCAGCT : yes

Record "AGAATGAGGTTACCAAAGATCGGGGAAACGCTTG" ; criterion: PBM binding z-score no lower than 1. Met?
yes

Record "TTACCAAGGTGAGCTGAGGGCGTTGATCCAACTC" ; criterion: PBM binding z-score no lower than 1. Met?
no

Record "TCTTGTAGAACAAGCAGGTTAAGAAAGCCTGAGT" ; criterion: PBM binding z-score no lower than 1. Met?
no

Record "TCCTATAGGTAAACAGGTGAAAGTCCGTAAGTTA" ; criterion: PBM binding z-score no lower than 1. Met?
no

Record "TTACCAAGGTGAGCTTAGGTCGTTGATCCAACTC" ; criterion: PBM binding z-score no lower than 1. Met?
no

----------
Listed here are sequences together with their documented PBM binding z-score.
test system: PXR homodimer (NR concentration 270 nM); test: PBM binding z-score (relative to random genomic background probes); higher = stronger binding; sequences stand for … in GC…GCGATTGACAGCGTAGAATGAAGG
In your answer, state the number alone without any accompanying words.

// below: answered sequences
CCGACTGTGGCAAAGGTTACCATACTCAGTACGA : 0.27
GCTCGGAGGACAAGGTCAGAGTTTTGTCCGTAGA : 0.373

Request the reported PBM binding z-score associated with "CATACAGGGTCAGCTAGGCCAGCGTAGGGACGGC"
0.247

Request the reported PBM binding z-score associated with "CGACCTAGGTCAGAACAGGACAGTGAAGGATGAT"
-0.195

Request the reported PBM binding z-score associated with "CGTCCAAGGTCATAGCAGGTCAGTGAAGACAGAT"
2.47

Request the reported PBM binding z-score associated with "AGTCGAAGTTCACTAGGTAACGTAAGATTCAGCT"
1.18

Request the reported PBM binding z-score associated with "CCTTACGGGTCACGAGGCTATAGCACGACGAGCG"
-0.243

Request the reported PBM binding z-score associated with "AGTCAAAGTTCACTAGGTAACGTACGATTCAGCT"
3.12

Request the reported PBM binding z-score associated with "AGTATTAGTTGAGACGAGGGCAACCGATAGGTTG"
0.87

Request the reported PBM binding z-score associated with "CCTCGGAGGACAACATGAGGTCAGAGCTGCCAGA"
0.437

Request the reported PBM binding z-score associated with "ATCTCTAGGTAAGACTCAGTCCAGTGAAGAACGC"
0.481

Request the reported PBM binding z-score associated with "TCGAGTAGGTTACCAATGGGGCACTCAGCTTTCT"
-0.848

Request the reported PBM binding z-score associated with "TCATATAGGTAATTGCTAGGTGAAAGTCCGATCT"
0.224

Request the reported PBM binding z-score associated with "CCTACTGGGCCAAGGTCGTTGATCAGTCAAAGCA"
0.241

Request the reported PBM binding z-score associated with "TTACCAATGTGAGCTGAGGTCGTTGATCCAACTC"
0.562

Request the reported PBM binding z-score associated with "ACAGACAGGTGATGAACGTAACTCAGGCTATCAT"
0.276

Request the reported PBM binding z-score associated with "CGTCCGAGGTCAGAGAGGTCAGTGAATGCCGAGT"
12.4
